Kindly supply the reported pIC50 values for the records listed here.
- Test system: P. berghei ookinete development
- test conditions: read-out: Pb Ookinete development assay IC50; dose response confirmation
// returns pIC50 (minus log10 of molar concentration), number only

Indicate the recorded pIC50 value for this compound: CCCC(C)n1ccc2c3c(N)nc(N)nc3ccc21 (stereo not drawn) [TCMDC-137964]
5.37

Indicate the recorded pIC50 value for this compound: CCCN1CCN(CCCCNc2c3ccccc3nc3ccccc23)CC1.Cl [TCMDC-137576]
5.63

Indicate the recorded pIC50 value for this compound: CCn1cc(C(=O)O)c(=O)c2cc(F)c(N3CCN(S(=O)(=O)c4ccc(N)cc4)CC3)cc21 [TCMDC-125809]
6.01

Indicate the recorded pIC50 value for this compound: COc1ccc2c(=O)c3ccc(OC)cc3[nH]c2c1 [TCMDC-132054]
6.24

Indicate the recorded pIC50 value for this compound: O=C(c1ccco1)N1CCN(c2ccc([N+](=O)[O-])c(NC3CC3)c2)CC1 [TCMDC-125397]
5.93

Indicate the recorded pIC50 value for this compound: CN(C)S(=O)(=O)n1ccc2c3c(N)nc(N)nc3ccc21 [TCMDC-137973]
5.90

Indicate the recorded pIC50 value for this compound: Br.CC(C)(C)c1ccccc1OCCCON1C(=N)N=C(N)NC1(C)C [TCMDC-131751]
5.51

Indicate the recorded pIC50 value for this compound: CC1(C)NC(N)=NC(=N)N1OCOc1ccc(Cl)cc1.Cl [TCMDC-131734]
5.58

Indicate the recorded pIC50 value for this compound: CCC(C)(C)c1ccc2nc(N)nc(N)c2c1C [TCMDC-137829]
5.51

Indicate the recorded pIC50 value for this compound: O=c1c2c([nH]c3cc(Cl)ccc13)CCCC2 [TCMDC-123504]
5.91

Indicate the recorded pIC50 value for this compound: COc1ccc(C[C@H]2NC[C@H](O)[C@H]2OC(C)=O)cc1 [TCMDC-125504]
6.67

Indicate the recorded pIC50 value for this compound: COc1ccc2nccc([C@@H](O)CN3CCC(NC(=O)c4cc5c(F)cc(F)cc5[nH]4)CC3)c2c1.CS(=O)(=O)O [TCMDC-140781]
6.00

Indicate the recorded pIC50 value for this compound: Cc1[nH]c(C)c(-c2ccc(-c3ccccc3C(F)(F)F)nc2)c(=O)c1Br [TCMDC-135881]
6.01

Indicate the recorded pIC50 value for this compound: CCCCOc1cc2ncc(C(=O)OCC)c(O)c2cc1OCCCC [TCMDC-137523]
5.66

Indicate the recorded pIC50 value for this compound: CN1CCN(c2ccc(Nc3nccc(-c4cnn5ncccc45)n3)cc2Cl)CC1 [TCMDC-138688]
5.74

Indicate the recorded pIC50 value for this compound: Cc1[nH]c(C)c(-c2ccc(OCc3cc(F)cc(F)c3)nc2)c(=O)c1Br [TCMDC-135683]
6.39

Indicate the recorded pIC50 value for this compound: CN(Cc1cccc(F)c1)C1CCN(c2cc(NC(=O)c3ccc(F)cc3)ccn2)CC1.O=C(O)C(F)(F)F [TCMDC-135018]
5.22

Indicate the recorded pIC50 value for this compound: COCCn1c(-c2cccc(Cl)c2)nn(-c2ccc([N+](=O)[O-])cc2C#N)c1=S [TCMDC-134719]
5.73

* * *

- Test system: HepG2 cells
- assay protocol: HepG2 cytotoxicity assay
- test conditions: HepG2 cytotoxicity unified across the three screens
Kindly supply the reported Unified cytotox values for the records listed here.
Kindly provide the numeric value in µM only, without the unit symbol.

Indicate the recorded Unified cytotox value for this compound: CS(=O)(=O)O.CSc1ccc2ccccc2c1CCNCCCCNCCc1c(SC)ccc2ccccc12
1.73

Indicate the recorded Unified cytotox value for this compound: COc1cccc(-c2csc(C(=O)NCC3CCN(Cc4ccc(C(C)(C)C)cc4)C3)c2)c1.O=C(O)C(F)(F)F (stereo not shown)
7.64

Indicate the recorded Unified cytotox value for this compound: COc1cccc(OC)c1CN1CCC(N(C)CCCCCCCCCN2CCC(OC(=O)Nc3ccccc3-c3ccccc3)CC2)CC1
1.91

Indicate the recorded Unified cytotox value for this compound: COc1ccc2c(c1)CC(C)(C)NC2CCCCCCCCC1NC(C)(C)Cc2cc(OC)ccc21.O=C(O)C(=O)O (stereo not shown)
5.47

* * *

- System: HepG2 cells
- assay protocol: HepG2 cytotoxicity assay
- test conditions: HepG2 values of the three screens unified
quantity measured: Unified cytotox (µM)
Kindly provide the numeric value in µM only, without the unit symbol.

Indicate the recorded Unified cytotox value for this compound: Br.CCCc1cc(C)ccc1OCCCON1C(N)=NC(N)=NC1(C)C
0.0017

Indicate the recorded Unified cytotox value for this compound: COc1c(F)ccc2ncc(Cl)c(CCN3CCC(NCc4ccc5c(n4)NC(=O)CS5)CC3)c12.Cl
23.99

Indicate the recorded Unified cytotox value for this compound: Cl.Cl.c1ccc2c(NCCCCCCNc3c4ccccc4nc4ccccc34)c3ccccc3nc2c1
7.56

Indicate the recorded Unified cytotox value for this compound: Cc1[nH]c(C)c(-c2ccc(Oc3ccc(F)cc3)cc2)c(=O)c1Cl
56.23

Indicate the recorded Unified cytotox value for this compound: Cc1[nH]c(C)c(-c2ccc(Oc3ccc(C(F)(F)F)cc3)cc2)c(=O)c1Br
5.75

Indicate the recorded Unified cytotox value for this compound: Cc1[nH]c(C)c(-c2ccc(OCc3cc(C(F)(F)F)cc(C(F)(F)F)c3)nc2)c(=O)c1Cl
1.66

Indicate the recorded Unified cytotox value for this compound: COc1ccc2nccc([C@@H](O)CN3CCC(NC(=O)c4cc5c(F)cc(F)cc5[nH]4)CC3)c2c1.CS(=O)(=O)O
11.22

Indicate the recorded Unified cytotox value for this compound: COc1ccc2nccc([C@@H](O)CN3CCC(NCc4cc5ccccc5nc4O)CC3)c2c1.Cl
48.98

Indicate the recorded Unified cytotox value for this compound: CCC(C)(C)n1c(C)cc2c3c(N)nc(N)nc3ccc21
0.00169

Indicate the recorded Unified cytotox value for this compound: Cc1[nH]c(C)c(-c2ccc(CCc3ccc(F)cc3F)cc2)c(=O)c1Cl
100.00

Indicate the recorded Unified cytotox value for this compound: Cc1ccc(S(=O)(=O)N(CCCNCc2cccc(O)c2)c2ccccc2)cc1
39.67

Indicate the recorded Unified cytotox value for this compound: CCN(CC)CCCNc1c2ccccc2nc2ccccc12.Cl
18.20

Indicate the recorded Unified cytotox value for this compound: Cc1[nH]c(C)c(-c2ccc(-c3ccccc3F)nc2)c(=O)c1Br
100.00

Indicate the recorded Unified cytotox value for this compound: Cc1[nH]c(C)c(-c2ccc(-c3cccc(Cl)c3)nc2)c(=O)c1Cl
56.23

Indicate the recorded Unified cytotox value for this compound: Cc1[nH]c(C)c(-c2ccc(Oc3ccc(F)cc3)cc2)c(=O)c1Br
3.80

Indicate the recorded Unified cytotox value for this compound: CCOc1cc(CNCCCCCCNCc2cc(OCC)c(OCC)c3ccccc23)c2ccccc2c1OCC.CS(=O)(=O)O
2.35

Indicate the recorded Unified cytotox value for this compound: CCC(CC)n1c(COC)cc2c3c(N)nc(N)nc3ccc21
0.0017

Indicate the recorded Unified cytotox value for this compound: Cc1[nH]c(C)c(-c2ccc(OCc3cccc(C(F)(F)F)c3)nc2)c(=O)c1Br
8.61

Indicate the recorded Unified cytotox value for this compound: CCCc1cc2c3c(N)nc(N)nc3ccc2n1C(CC)CC
0.0017

Indicate the recorded Unified cytotox value for this compound: COc1cc(Cn2ccc3c4c(N)nc(N)nc4ccc32)cc(OC)c1OC
0.0017

Indicate the recorded Unified cytotox value for this compound: Cc1[nH]c(C)c(-c2ccc(-c3ccc(C(F)(F)F)cc3C(F)(F)F)nc2)c(=O)c1Br
7.41

Indicate the recorded Unified cytotox value for this compound: CCCC(N)C(=O)NC1CCN(c2c(F)c(N)c3c(=O)c(C(=O)O)cn4c3c2Oc2ccccc2-4)C1.Cl (stereo not shown)
2.62

Indicate the recorded Unified cytotox value for this compound: Cc1[nH]c(C)c(-c2ccc(-c3ccc(OCC(F)(F)F)cc3)nc2)c(=O)c1Cl
100.00

Indicate the recorded Unified cytotox value for this compound: COc1c(CCNCCCCNCCc2cc(Cl)c3ccccc3c2OC)cc(Cl)c2ccccc12.CS(=O)(=O)O
2.57

Indicate the recorded Unified cytotox value for this compound: Nc1nc(N)c2c(ccc3c2ccn3CCCF)n1
1.10

Indicate the recorded Unified cytotox value for this compound: Cc1[nH]c(C)c(-c2ccc(-c3ccc(C(F)F)cc3)nc2)c(=O)c1Cl
100.00

Indicate the recorded Unified cytotox value for this compound: CC1(C)N=C(N)N=C(N)N1OCCCc1ccccc1.Cl
0.001

Indicate the recorded Unified cytotox value for this compound: Cc1cc(O)c(-c2ccc(Oc3ccc(F)cc3)cc2)c(C)n1
0.28

Indicate the recorded Unified cytotox value for this compound: CC(C)N1CCN(CCCNc2c3ccccc3nc3ccccc23)CC1.Cl
14.45

Indicate the recorded Unified cytotox value for this compound: Nc1nc(N)c2c(ccc3c2ccn3Cc2ccccc2)n1
0.15

Indicate the recorded Unified cytotox value for this compound: CCN1CCN(CCNc2c3ccccc3nc3ccccc23)CC1.Cl
11.75

Indicate the recorded Unified cytotox value for this compound: COc1cccc(NC(=O)[C@H](C(C)C)n2c(=O)[nH]c3ccccc3c2=O)c1
100.00

Indicate the recorded Unified cytotox value for this compound: N#Cc1ccc(Cn2ccc3c4c(N)nc(N)nc4ccc32)cc1
0.0017

Indicate the recorded Unified cytotox value for this compound: Cl.c1ccc2c(NCCCCCCCCCNc3c4ccccc4nc4ccccc34)c3ccccc3nc2c1
5.50
